# Test system: KM12 colon
# Test: NCI-60 one-dose screen, 48 h (100 = growth as untreated, 0 = no growth, -100 = all killed)
# Stated Conditions: 10 µM unless noted
This is part of a sample that, as a whole, favours compounds with a hit. Of some 83,000 tested, about 20% had one in any assay.
Please respond with reported growth for every item in the list.
Respond with the bare value in %.

Reported growth (KM12 colon) for entry Nc1nc(N)c2c(n1)NC(c1ccccc1)CC(c1ccc(Nc3nc(NCCO)nc(Nc4ccc(Cl)cc4)n3)cc1)=N2 (stereo not given) is 47

Reported growth (KM12 colon) for entry COc1ccc(-c2oc3cc(O)cc(O)c3c(=O)c2OC)cc1O is 26.2

Reported growth (KM12 colon) for entry CC(=O)Nc1ccc(C)c(Nc2cc(-c3ccc(-n4cccn4)cc3)[nH]n2)c1 is 30.8

Reported growth (KM12 colon) for entry COc1cc(NC2=C(Cl)C(=O)c3nc(C)ccc3C2=O)cc(OC)c1 is 39.3

Reported growth (KM12 colon) for entry CN(C)C(=O)C1=NC(CO)C(=O)N(c2ccc(Cl)cc2)N1 (stereo not given) is 98.2
